experiment: Solubility profile; conditions: ethanol
Numbered stars: 1 amine (or outer) side, 2 acyl side, 3 side chain; on linkers, the order of the positions; unused ones are H or OH. Bridge positions count the residues as written; N and C are the ends. Square brackets hold non-standard residues; d marks the D form. Peptide text beside a SMILES is read from it. * marks the point of attachment. NH(2-ClPh) = Clc1ccccc1N*; Dab = NCC[C@H](N)C(=O)O; CO = O=C([*:1])[*:2]
Reported Endpoint: solubility

>>> obs_value("CC(C)C[C@@H]1NC(=O)[C@@H](Cc2ccccc2)NC(=O)[C@H](CCN)NC(=O)[C@@H](NC(=O)[C@H](CCN)NC(=O)[C@@H](NC(=O)[C@H](CCN)NC(=O)Nc2ccccc2Cl)[C@@H](C)O)CCNC(=O)[C@H]([C@@H](C)O)NC(=O)[C@H](CCN)NC(=O)[C@H](CCN)NC1=O [Compound 5] ({NH(2-ClPh)-CO}-[Dab]T[Dab][Dab][Dab][dF]L[Dab][Dab]T; lactam 4-C)")
"200 µg/mL"

###

assay: Lipophilicity (Log P)
Numbered stars: 1 amine (or outer) side, 2 acyl side, 3 side chain; on linkers, the order of the positions; unused ones are H or OH. Bridge positions count the residues as written; N and C are the ends. Square brackets hold non-standard residues; d marks the D form. Peptide text beside a SMILES is read from it. * marks the point of attachment. NH(2-ClPh) = Clc1ccccc1N*; Dab = NCC[C@H](N)C(=O)O; CO = O=C([*:1])[*:2]
Reported Endpoint: logP

>>> obs_value("CC(C)C[C@@H]1NC(=O)[C@@H](Cc2ccccc2)NC(=O)[C@H](CCN)NC(=O)[C@@H](NC(=O)[C@H](CCN)NC(=O)[C@@H](NC(=O)[C@H](CCN)NC(=O)Nc2ccccc2Cl)[C@@H](C)O)CCNC(=O)[C@H]([C@@H](C)O)NC(=O)[C@H](CCN)NC(=O)[C@H](CCN)NC1=O [Compound 5] ({NH(2-ClPh)-CO}-[Dab]T[Dab][Dab][Dab][dF]L[Dab][Dab]T; lactam 4-C)")
"< -1"
